# tgt: HIV-1 JR-CSF Env F317A (HIV-1 isolate JR-CSF) (UniProt P20871)
# assayOverview: cell-based or functional assay
Listed here: items and their measured Fold IC50 increase relative to wild-type.

binder: PGT-125 (antibody, V domains shown) VH: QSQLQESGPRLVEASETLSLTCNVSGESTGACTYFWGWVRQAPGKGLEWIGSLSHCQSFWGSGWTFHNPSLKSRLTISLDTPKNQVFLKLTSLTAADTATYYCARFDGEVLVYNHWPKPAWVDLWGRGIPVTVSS VL: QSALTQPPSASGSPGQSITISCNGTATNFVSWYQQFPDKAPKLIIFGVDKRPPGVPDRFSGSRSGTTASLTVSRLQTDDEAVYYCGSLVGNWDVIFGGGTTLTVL
Fold IC50 increase relative to wild-type, fold: 1.8
//
binder: PGT-135 (antibody, V domains shown) VH: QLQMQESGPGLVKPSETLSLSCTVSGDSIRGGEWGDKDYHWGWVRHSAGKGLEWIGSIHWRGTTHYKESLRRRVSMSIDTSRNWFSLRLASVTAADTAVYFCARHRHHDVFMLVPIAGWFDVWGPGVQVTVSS VL: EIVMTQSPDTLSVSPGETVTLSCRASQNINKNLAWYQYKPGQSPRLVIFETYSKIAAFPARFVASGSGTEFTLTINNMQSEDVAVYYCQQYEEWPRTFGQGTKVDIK
Fold IC50 increase relative to wild-type, fold: 0.5
//
binder: PGT-127 (antibody, V domains shown) VH: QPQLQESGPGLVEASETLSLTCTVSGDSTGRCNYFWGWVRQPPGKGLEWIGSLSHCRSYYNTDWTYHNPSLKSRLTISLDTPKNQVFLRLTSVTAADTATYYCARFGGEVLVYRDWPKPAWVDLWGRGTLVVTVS VL: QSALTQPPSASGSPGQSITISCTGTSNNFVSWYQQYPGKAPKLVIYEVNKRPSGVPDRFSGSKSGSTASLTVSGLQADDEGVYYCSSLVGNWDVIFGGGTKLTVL
Fold IC50 increase relative to wild-type, fold: 0.2
